# system: T1, soluble human CD16A (sCD16A) (human, UniProt P08637 17-203)
# T1 construct: CD16A truncated just prior to the transmembrane region, expressed in HEK-293; The last seven residues come from vector pCDNA3.1; also called soluble form of human CD16A
# T1 sequence (P08637 other isoform, or with tags, fused parts or gaps limits assumed): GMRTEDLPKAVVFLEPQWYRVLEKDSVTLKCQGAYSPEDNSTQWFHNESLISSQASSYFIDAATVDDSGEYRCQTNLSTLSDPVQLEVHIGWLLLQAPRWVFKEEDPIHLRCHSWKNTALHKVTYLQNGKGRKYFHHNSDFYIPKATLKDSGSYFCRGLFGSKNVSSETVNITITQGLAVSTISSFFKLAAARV
# experimental_details: ELISA, captured sCD16A
parameter_measured: binding result

>>> result("hu3G8VH-20/hu3G8VL-1 (antibody, VH fused to human Cγ1 constant region) VH: QVTLRESGPALVKPTQTLTLTCTFSGFSLSTSGVGVGWIRQPPGKALEWLAHIWWDDDKRYSPSLKSRLTISKDTSKNQVVLTMTNMDPVDTATYYCARINPAWFAYWGQGTLVTVSS light: DIVMTQSPDSLAVSLGERATINCKASQSVDFDGDSFMNWYQQKPGQPPKLLIYTTSNLESGVPDRFSGSGSGTDFTLTISSLQAEDVAVYYCQQSNEDPYTFGQGTKLEIKRTVAAPSVFIFPPSDEQLKSGTASVVCLLNNFYPREAKVQWKVDNALQSGNSQESVTEQDSKDSTYSLSSTLTLSKADYEKHKVYACEVTHQGLSSPVTKSFNRGEC")
"binds"
